Target: cannabinoid receptor 2 (CB2) (Homo sapiens (Human))
Sequence (P34972 whole entry, species assumed): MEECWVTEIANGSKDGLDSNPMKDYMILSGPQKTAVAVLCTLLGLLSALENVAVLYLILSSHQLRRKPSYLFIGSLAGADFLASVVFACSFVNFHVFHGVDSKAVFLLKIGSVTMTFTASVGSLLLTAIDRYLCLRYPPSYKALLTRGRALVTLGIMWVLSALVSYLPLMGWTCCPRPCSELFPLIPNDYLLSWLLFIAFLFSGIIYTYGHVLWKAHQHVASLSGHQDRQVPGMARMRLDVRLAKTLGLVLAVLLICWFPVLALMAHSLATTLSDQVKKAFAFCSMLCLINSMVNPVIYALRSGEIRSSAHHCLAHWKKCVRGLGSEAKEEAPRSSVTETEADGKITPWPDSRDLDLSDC
readoutLabel: Ki (µM)
Numbers only here, please. The scale is µM.

Tested on cannabinoid receptor 2 (CB2) (Homo sapiens (Human)), the item Cc1c(Cl)cccc1NC(=O)Nc1cccc(O)c1 [Compound 16] showed Ki equal to 12.2

---

Biological target: hTRPV1 (Homo sapiens (Human))
Sequence (Q8NER1 whole entry): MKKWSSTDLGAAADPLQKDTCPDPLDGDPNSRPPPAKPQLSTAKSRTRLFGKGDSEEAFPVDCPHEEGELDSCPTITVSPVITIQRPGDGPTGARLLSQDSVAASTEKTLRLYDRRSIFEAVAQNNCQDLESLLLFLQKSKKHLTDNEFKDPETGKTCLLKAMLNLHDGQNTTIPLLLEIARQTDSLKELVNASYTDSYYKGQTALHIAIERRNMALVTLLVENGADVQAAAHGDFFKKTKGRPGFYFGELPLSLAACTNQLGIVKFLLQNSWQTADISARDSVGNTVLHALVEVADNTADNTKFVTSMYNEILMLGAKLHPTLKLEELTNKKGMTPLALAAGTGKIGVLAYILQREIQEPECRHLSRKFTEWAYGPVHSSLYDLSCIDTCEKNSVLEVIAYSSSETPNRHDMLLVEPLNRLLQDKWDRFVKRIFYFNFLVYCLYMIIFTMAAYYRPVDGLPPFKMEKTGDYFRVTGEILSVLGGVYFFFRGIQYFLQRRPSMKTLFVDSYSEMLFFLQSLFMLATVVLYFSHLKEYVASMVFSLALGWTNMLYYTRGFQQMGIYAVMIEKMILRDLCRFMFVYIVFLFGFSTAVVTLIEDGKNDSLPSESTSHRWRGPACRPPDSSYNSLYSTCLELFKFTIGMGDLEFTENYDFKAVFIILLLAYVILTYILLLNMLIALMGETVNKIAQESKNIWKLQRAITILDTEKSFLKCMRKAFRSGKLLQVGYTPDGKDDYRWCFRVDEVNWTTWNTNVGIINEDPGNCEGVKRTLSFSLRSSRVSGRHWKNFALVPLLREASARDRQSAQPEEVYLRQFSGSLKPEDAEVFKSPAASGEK
Assay: Ca2+ uptake assay, capsaicin antagonism (CHO-hTRPV1 cells)
Type: cell-based
Settings: compound at 30 μM, capsaicin 30 nM
Method: Tet-On induced CHO-hTRPV1 cells were cultured in maintaining medium (F12 supplemented with 10% TET-free FBS [Atlanta Biologicals, GA], 25 mM HEPES, 10 μg/ml blasticidin and 250 μg/ml geneticin (all from Invitrogen Life Sciences; Grand Island, N.Y.). TRPV1 protein was induced with induction medium (F12 supplemented with 10% FBS, 25 mM HEPES, and 1 μg/ml tetracycline) as described below for ligand binding and Ca uptake measurements. […]
Examples of compounds with documented inhibition at 30 µM follow.
The figure you give is taken to be in %; do not add the unit.

Consider the reported inhibition at 30 µM for these compounds:
{"smiles": "CCOC(=O)c1ccc(NC(=O)Nc2cccc(Cl)c2)cc1", "units": "%", "inhibition at 30 µM": 64.5}
{"smiles": "Cc1cc([N+](=O)[O-])ccc1NC(=O)Nc1cccc(F)c1", "units": "%", "inhibition at 30 µM": 79.9}

Measured inhibition at 30 µM, O=C(Nc1cccc(C(F)(F)F)c1)Nc1ccc([N+](=O)[O-])cc1Cl : 98.2
